Catalogue of molecules with associated selectivity ratio
Assay: Selectivity index, ratio of IC50 for human ARPE19 cells to IC50 for human A2780 cells
Assay type: toxicity
Details: ARPE19 cells versus A2780 cells, read-out: Ratio IC50
// print number alone

[[record]]
smiles_entry = "CC(C)CCc1sc(NC(=O)c2cc(NC(=O)c3ccc(/C=C/c4cccc(C(F)(F)F)c4)nc3)cn2C)nc1C(=O)NCCCN(C)C"
property_measured = "selectivity ratio"
endpoint_value = 0.81

[[record]]
smiles_entry = "CC(C)CCc1sc(NC(=O)c2cc(NC(=O)c3cc(NC(=N)c4cccc(Cl)c4)cn3C)cn2C)nc1C(=O)NCCCN(C)C"
property_measured = "selectivity ratio"
endpoint_value = 1.28

[[record]]
smiles_entry = "CC(C)CCc1sc(NC(=O)c2cc(NC(=O)c3ccc(NC(=O)c4ccc(F)cc4)cc3)cn2C)nc1C(=O)NCCCN(C)C"
property_measured = "selectivity ratio"
endpoint_value = 0.99

[[record]]
smiles_entry = "CC(C)CCc1sc(NC(=O)c2cc(NC(=O)c3ccc(/C=C/c4ccc(F)cc4)cc3)cn2C)nc1C(=O)NCCCN(C)C"
property_measured = "selectivity ratio"
endpoint_value = 2.06

[[record]]
smiles_entry = "CC(C)CCc1sc(NC(=O)c2cc(NC(=O)c3cc(NC(=O)c4ccc(C(F)(F)F)cc4)cn3C)cn2C)nc1C(=O)NCCCN(C)C"
property_measured = "selectivity ratio"
endpoint_value = 0.34

[[record]]
smiles_entry = "CC(C)CCc1sc(NC(=O)c2cc(NC(=O)c3cc(NC(=N)c4ccc(F)cc4)cn3C)cn2C)nc1C(=O)NCCCN(C)C"
property_measured = "selectivity ratio"
endpoint_value = 0.95


Input: Endpoint output: selectivity ratio of `COc1cc(/C=C/c2ccc(C(=O)Nc3cc(C(=O)Nc4nc(C(=O)NCCCN(C)C)c(CCC(C)C)s4)n(C)c3)cn2)ccc1F` . Value?
Output: 0.85

Input: Given the molecule `CC(C)CCc1sc(NC(=O)c2cc(NC(=O)c3cc(NC(=N)c4cccc(F)c4)cn3C)cn2C)nc1C(=O)NCCCN(C)C` , what is its reported selectivity ratio?
Output: 0.91

Input: # selectivity ratio lookup, item `CC(C)CCc1sc(NC(=O)c2cc(NC(=O)c3ccc(/C=C/c4ccc(F)cc4)nc3)cn2C)nc1C(=O)NCCCN(C)C`
Output: 1.35

Input: Fill in the blank: the reported selectivity ratio of `CC(C)CCc1sc(NC(=O)c2cc(NC(=O)c3cc(NC(=N)c4ccc(Cl)cc4)cn3C)cn2C)nc1C(=O)NCCCN(C)C` is ____.
Output: 0.98

Input: # input molecule: `CC(C)CCc1sc(NC(=O)c2cc(NC(=O)c3cc(NC(=N)c4cccc(Cl)c4)cn3C)cn2C)nc1C(=O)NCCN1CCOCC1` ; wanted: its selectivity ratio
Output: 1.32

Input: Using the record for `CC(C)CCc1sc(NC(=O)c2cc(NC(=O)c3cc(NC(=O)c4cccc(F)c4)cn3C)cn2C)nc1C(=O)NCCCN(C)C` , report its selectivity ratio.
Output: 0.55

Input: Which selectivity ratio value is on record for `CC(C)CCc1sc(NC(=O)c2cc(NC(=O)c3cc(NC(=N)c4ccc(F)cc4)cn3C)cn2C)nc1C(=O)NCCN1CCOCC1` ?
Output: 1.12

Input: Would you kindly share the measured selectivity ratio for `CC(C)CCc1sc(NC(=O)c2cc(NC(=O)c3cc(NC(=O)c4ccc(F)cc4)cn3C)cn2C)nc1C(=O)NCCCN(C)C` ?
Output: 0.41

Input: So what's the measured selectivity ratio for this one? `CC(C)CCc1sc(NC(=O)c2cc(NC(=O)c3ccc(/C=C/c4ccc(C(F)(F)F)cc4)cc3)cn2C)nc1C(=O)NCCCN(C)C`
Output: 1.36
